target: UniProt:P04150; assay: GRE Antagonist Assay (ChagoK1 18:7:2 s4/GRE reporter cells pre-stimulated with dexamethasone); format: cell-based; conditions: transactivation in antagonist mode, pre-stimulated with dexamethasone 70 nM

{"Smiles Structure": "CC(C)[C@H](NC(=O)C(C)(F)F)[C@H](Oc1ccc2c(cnn2-c2ccc(=O)n(C)c2)c1)c1ccc(Cl)c(F)c1", "Tested Target": "UniProt:P04150", "TA antagonist pIC50": 7.3}
{"Smiles Structure": "CC(C)[C@H](NC(=O)C(F)(F)F)[C@H](Oc1ccc2c(cnn2-c2ccc(=O)n(C)c2)c1)c1cc(F)cc(Cl)c1", "Tested Target": "UniProt:P04150", "TA antagonist pIC50": 7.6}
{"Smiles Structure": "CC(C)[C@H](NC(=O)C(C)(F)F)[C@H](Oc1ccc2c(cnn2-c2ccc(=O)n(C)c2)c1)c1ccc(C(F)(F)F)cc1", "Tested Target": "UniProt:P04150", "TA antagonist pIC50": 7.0}
{"Smiles Structure": "CC(C)[C@H](NC(=O)C(C)(F)F)[C@H](Oc1ccc2c(cnn2-c2ccc(=O)n(C)c2)c1)c1ccc(OC(F)(F)F)cc1", "Tested Target": "UniProt:P04150", "TA antagonist pIC50": 6.9}
{"Smiles Structure": "CC(C)[C@H](NC(=O)C(F)(F)F)[C@H](Oc1ccc2c(cnn2-c2ccc(=O)n(C)c2)c1)c1cc(F)cc(F)c1", "Tested Target": "UniProt:P04150", "TA antagonist pIC50": 8.8}
{"Smiles Structure": "CC(C)[C@H](NC(=O)C(C)(F)F)[C@H](Oc1ccc2c(cnn2-c2ccc(=O)n(C)c2)c1)c1cccc(Cl)c1", "Tested Target": "UniProt:P04150", "TA antagonist pIC50": 6.7}
{"Smiles Structure": "CC(C)[C@H](NC(=O)C(F)(F)F)[C@H](Oc1ccc2c(cnn2-c2ccc(=O)n(C)c2)c1)c1cc(Cl)cc(Cl)c1", "Tested Target": "UniProt:P04150", "TA antagonist pIC50": 6.9}
{"Smiles Structure": "CC(C)[C@H](NC(=O)C(F)(F)F)[C@H](Oc1ccc2c(cnn2-c2ccc(=O)n(C)c2)c1)c1ccc(Cl)cc1", "Tested Target": "UniProt:P04150", "TA antagonist pIC50": 6.9}
{"Smiles Structure": "CC(C)[C@H](NC(=O)C(C)(F)F)[C@H](Oc1cc2cnn(-c3ccc(=O)n(C)c3)c2cc1Cl)c1ccccc1", "Tested Target": "UniProt:P04150", "TA antagonist pIC50": 7.3}
{"Smiles Structure": "CC(C)[C@H](NC(=O)C(F)(F)F)[C@H](Oc1ccc2c(cnn2-c2ccc(=O)n(C)c2)c1)c1ccc(OC(F)F)cc1", "Tested Target": "UniProt:P04150", "TA antagonist pIC50": 6.6}
{"Smiles Structure": "CCn1cc(-n2ncc3cc(O[C@H](c4ccccc4)[C@@H](NC(=O)C(C)(F)F)C(C)C)ccc32)ccc1=O", "Tested Target": "UniProt:P04150", "TA antagonist pIC50": 6.4}
{"Smiles Structure": "CC(C)[C@H](NC(=O)C(F)(F)F)[C@H](Oc1ccc2c(cnn2-c2ccc(=O)n(C)c2)c1)c1ccc(C(F)(F)F)cc1", "Tested Target": "UniProt:P04150", "TA antagonist pIC50": 7.3}
{"Smiles Structure": "CC(C)[C@H](NC(=O)C(C)(F)F)[C@H](Oc1ccc2c(cnn2-c2ccc(=O)n(C)c2)c1)c1ccc(OC(F)F)cc1", "Tested Target": "UniProt:P04150", "TA antagonist pIC50": 6.7}

----------
Entries annotated with measured TA antagonist pIC50
target: human glucocorticoid receptor (GR) (Homo sapiens (Human), UniProt P04150); assay: GRE Antagonist Assay (ChagoK1 18:7:2 s4/GRE reporter cells pre-stimulated with dexamethasone); type: cell-based; settings: transactivation in antagonist mode, pre-stimulated with dexamethasone 70 nM
Sequence (P04150 whole entry): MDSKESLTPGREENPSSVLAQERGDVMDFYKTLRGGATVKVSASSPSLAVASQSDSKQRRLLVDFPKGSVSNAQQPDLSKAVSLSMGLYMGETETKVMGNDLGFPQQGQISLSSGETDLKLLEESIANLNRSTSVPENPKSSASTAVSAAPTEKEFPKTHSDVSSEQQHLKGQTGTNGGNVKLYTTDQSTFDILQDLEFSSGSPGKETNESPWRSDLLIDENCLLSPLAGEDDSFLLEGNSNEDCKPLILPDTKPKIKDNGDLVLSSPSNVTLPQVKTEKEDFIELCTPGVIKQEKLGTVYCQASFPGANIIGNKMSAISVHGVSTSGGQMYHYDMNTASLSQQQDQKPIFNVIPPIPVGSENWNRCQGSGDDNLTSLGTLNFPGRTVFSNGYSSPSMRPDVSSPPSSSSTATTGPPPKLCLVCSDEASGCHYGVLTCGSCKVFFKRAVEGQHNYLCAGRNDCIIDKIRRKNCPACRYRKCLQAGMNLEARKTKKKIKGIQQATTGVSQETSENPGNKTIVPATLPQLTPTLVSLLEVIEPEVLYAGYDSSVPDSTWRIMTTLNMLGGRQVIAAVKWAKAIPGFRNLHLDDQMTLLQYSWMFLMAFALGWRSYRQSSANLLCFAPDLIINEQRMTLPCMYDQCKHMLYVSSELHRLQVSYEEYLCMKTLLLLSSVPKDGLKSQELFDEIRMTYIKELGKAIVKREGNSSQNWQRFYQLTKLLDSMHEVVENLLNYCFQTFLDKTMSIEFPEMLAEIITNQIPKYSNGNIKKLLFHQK
Endpoint Label: TA antagonist pIC50

{"Smiles Structure": "CC(C)[C@H](NC(=O)C(C)(F)F)[C@H](Oc1ccc2c(cnn2-c2ccc(=O)n(C)c2)c1)c1ccc(Cl)cc1", "Reported Measurement": 7.1}
{"Smiles Structure": "CC(C)[C@H](NC(=O)C(C)(F)F)[C@H](Oc1ccc2c(cnn2-c2ccc(=O)n(C)c2)c1)c1cc(F)cc(Cl)c1", "Reported Measurement": 7.6}
{"Smiles Structure": "Cc1cc2c(cnn2-c2ccc(=O)n(C)c2)cc1O[C@H](c1ccccc1)[C@@H](NC(=O)C(C)(F)F)C(C)C", "Reported Measurement": 7.1}
{"Smiles Structure": "CC(C)[C@H](NC(=O)C(C)(F)F)[C@H](Oc1ccc2c(cnn2-c2ccc(=O)n(C)c2)c1)c1cc(F)cc(F)c1", "Reported Measurement": 7.6}

----------
molecular target: human glucocorticoid receptor (GR) (Homo sapiens (Human)); assay: GRE Agonist Assay (ChagoK1 18:7:2 s4/GRE MMTV-GRE-LacZ reporter cell line); format: cell-based; settings: transactivation in agonist mode, ChagoK1 GRE-LacZ reporter cells, 24 hours
Entries annotated with measured TA agonist pEC50
Endpoint Label: TA agonist pEC50

{"Compound": "CC(C)[C@H](NC(=O)C(C)(F)F)[C@H](Oc1ccc2c(cnn2-c2ccc(=O)n(C)c2)c1)c1ccc(Cl)cc1 [Example 7]", "Tested Target": "human glucocorticoid receptor (GR) (Homo sapiens (Human))", "Reported Measurement": 8.1}
{"Compound": "CC(C)[C@H](NC(=O)C(F)(F)F)[C@H](Oc1ccc2c(cnn2-c2ccc(=O)n(C)c2)c1)c1cc(F)cc(F)c1 [Example 4]", "Tested Target": "human glucocorticoid receptor (GR) (Homo sapiens (Human))", "Reported Measurement": 8.7}
{"Compound": "CC(C)[C@H](NC(=O)C(F)(F)F)[C@H](Oc1ccc2c(cnn2-c2ccc(=O)n(C)c2)c1)c1ccc(C(F)(F)F)cc1 [Example 15]", "Tested Target": "human glucocorticoid receptor (GR) (Homo sapiens (Human))", "Reported Measurement": 8.2}
{"Compound": "CC(C)[C@H](NC(=O)C(C)(F)F)[C@H](Oc1ccc2c(cnn2-c2ccc(=O)n(C)c2)c1)c1ccc(OC(F)(F)F)cc1 [Example 9]", "Tested Target": "human glucocorticoid receptor (GR) (Homo sapiens (Human))", "Reported Measurement": 7.7}
{"Compound": "CC(C)[C@H](NC(=O)C(C)(F)F)[C@H](Oc1ccc2c(cnn2-c2ccc(=O)n(C)c2)c1)c1ccc(Cl)c(F)c1 [Example 20]", "Tested Target": "human glucocorticoid receptor (GR) (Homo sapiens (Human))", "Reported Measurement": 8.3}
{"Compound": "CC(C)[C@H](NC(=O)C(C)(F)F)[C@H](Oc1ccc2c(cnn2-c2ccc(=O)n(C)c2)c1)c1cc(F)cc(Cl)c1 [Example 19]", "Tested Target": "human glucocorticoid receptor (GR) (Homo sapiens (Human))", "Reported Measurement": 8.5}

----------
molecular target: human glucocorticoid receptor (GR) (Homo sapiens (Human)); assay: GRE Agonist Assay (ChagoK1 18:7:2 s4/GRE MMTV-GRE-LacZ reporter cell line); assay type: cell-based; conditions: ChaGo-K-1; at 1 μM; relative to full agonist effect of dexamethasone; read-out: TA agonist Observed max Effect at 1 μM (%)
Entries annotated with measured Emax at 1 µM
Endpoint Label: Emax at 1 µM (%)

{"Smiles Structure": "CC(C)[C@H](NC(=O)C(C)(F)F)[C@H](Oc1ccc2c(cnn2-c2ccc(=O)n(C)c2)c1)c1cccc(Cl)c1", "Endpoint Label": "Emax at 1 µM", "Reported Measurement": 28}
{"Smiles Structure": "CC(C)[C@H](NC(=O)C(F)(F)F)[C@H](Oc1ccc2c(cnn2-c2ccc(=O)n(C)c2)c1)c1ccc(Cl)cc1", "Endpoint Label": "Emax at 1 µM", "Reported Measurement": 28}
{"Smiles Structure": "CC(C)[C@H](NC(=O)C(C)(F)F)[C@H](Oc1ccc2c(cnn2-c2ccc(=O)n(C)c2)c1)c1ccccc1", "Endpoint Label": "Emax at 1 µM", "Reported Measurement": 36}
{"Smiles Structure": "CC(C)[C@H](NC(=O)C(F)(F)F)[C@H](Oc1ccc2c(cnn2-c2ccc(=O)n(C)c2)c1)c1ccc(C(F)(F)F)cc1", "Endpoint Label": "Emax at 1 µM", "Reported Measurement": 27}
{"Smiles Structure": "CC(C)[C@H](NC(=O)C(F)(F)F)[C@H](Oc1ccc2c(cnn2-c2ccc(=O)n(C)c2)c1)c1cccc(Cl)c1", "Endpoint Label": "Emax at 1 µM", "Reported Measurement": 24}
{"Smiles Structure": "CC(C)[C@H](NC(=O)C(F)(F)F)[C@H](Oc1cc2cnn(-c3ccc(=O)n(C)c3)c2cc1Cl)c1ccccc1", "Endpoint Label": "Emax at 1 µM", "Reported Measurement": 37}
{"Smiles Structure": "CC(C)[C@H](NC(=O)C(C)(F)F)[C@H](Oc1ccc2c(cnn2-c2ccc(=O)n(C)c2)c1)c1ccc(OC(F)F)cc1", "Endpoint Label": "Emax at 1 µM", "Reported Measurement": 28}
{"Smiles Structure": "CCn1cc(-n2ncc3cc(O[C@H](c4ccccc4)[C@@H](NC(=O)C(C)(F)F)C(C)C)ccc32)ccc1=O", "Endpoint Label": "Emax at 1 µM", "Reported Measurement": 14}
{"Smiles Structure": "CC(C)[C@H](NC(=O)C(C)(F)F)[C@H](Oc1cc2cnn(-c3ccc(=O)n(C)c3)c2cc1Cl)c1ccccc1", "Endpoint Label": "Emax at 1 µM", "Reported Measurement": 42}
{"Smiles Structure": "CC(C)[C@H](NC(=O)C(F)(F)F)[C@H](Oc1ccc2c(cnn2-c2ccc(=O)n(C)c2)c1)c1ccccc1", "Endpoint Label": "Emax at 1 µM", "Reported Measurement": 25}
{"Smiles Structure": "Cc1cc2c(cnn2-c2ccc(=O)n(C)c2)cc1O[C@H](c1ccccc1)[C@@H](NC(=O)C(C)(F)F)C(C)C", "Endpoint Label": "Emax at 1 µM", "Reported Measurement": 46}
{"Smiles Structure": "CC(C)[C@H](NC(=O)C(C)(F)F)[C@H](Oc1ccc2c(cnn2-c2ccc(=O)n(C)c2)c1)c1ccc(OC(F)(F)F)cc1", "Endpoint Label": "Emax at 1 µM", "Reported Measurement": 22}
{"Smiles Structure": "CC(C)[C@H](NC(=O)C(C)(F)F)[C@H](Oc1ccc2c(cnn2-c2ccc(=O)n(C)c2)c1)c1cc(F)cc(F)c1", "Endpoint Label": "Emax at 1 µM", "Reported Measurement": 44}
{"Smiles Structure": "CC(C)[C@H](NC(=O)C(C)(F)F)[C@H](Oc1ccc2c(cnn2-c2ccc(=O)n(C)c2)c1)c1cc(Cl)cc(Cl)c1", "Endpoint Label": "Emax at 1 µM", "Reported Measurement": 36}
{"Smiles Structure": "CC(C)[C@H](NC(=O)C(F)(F)F)[C@H](Oc1ccc2c(cnn2-c2ccc(=O)n(C)c2)c1)c1cc(Cl)cc(Cl)c1", "Endpoint Label": "Emax at 1 µM", "Reported Measurement": 20}
{"Smiles Structure": "CC(C)[C@H](NC(=O)C(C)(F)F)[C@H](Oc1ccc2c(cnn2-c2ccc(=O)n(C)c2)c1)c1cc(F)cc(Cl)c1", "Endpoint Label": "Emax at 1 µM", "Reported Measurement": 38}
{"Smiles Structure": "CC(C)[C@H](NC(=O)C(F)(F)F)[C@H](Oc1ccc2c(cnn2-c2ccc(=O)n(C)c2)c1)c1cc(F)cc(Cl)c1", "Endpoint Label": "Emax at 1 µM", "Reported Measurement": 32}
{"Smiles Structure": "CC(C)[C@H](NC(=O)C(C)(F)F)[C@H](Oc1ccc2c(cnn2-c2ccc(=O)n(C)c2)c1)c1ccc(Cl)cc1", "Endpoint Label": "Emax at 1 µM", "Reported Measurement": 46}
{"Smiles Structure": "CC(C)[C@H](NC(=O)C(C)(F)F)[C@H](Oc1ccc2c(cnn2-c2ccc(=O)n(C)c2)c1)c1ccc(Cl)c(F)c1", "Endpoint Label": "Emax at 1 µM", "Reported Measurement": 43}
{"Smiles Structure": "CC(C)[C@H](NC(=O)C(F)(F)F)[C@H](Oc1ccc2c(cnn2-c2ccc(=O)n(C)c2)c1)c1ccc(OC(F)F)cc1", "Endpoint Label": "Emax at 1 µM", "Reported Measurement": 20}
{"Smiles Structure": "CC(C)[C@H](NC(=O)C(C)(F)F)[C@H](Oc1ccc2c(cnn2-c2ccc(=O)n(C)c2)c1)c1ccc(C(F)(F)F)cc1", "Endpoint Label": "Emax at 1 µM", "Reported Measurement": 40}
{"Smiles Structure": "CC(C)[C@H](NC(=O)C(F)(F)F)[C@H](Oc1ccc2c(cnn2-c2ccc(=O)n(C)c2)c1)c1ccc(Cl)c(F)c1", "Endpoint Label": "Emax at 1 µM", "Reported Measurement": 32}
{"Smiles Structure": "CC(C)[C@H](NC(=O)C(F)(F)F)[C@H](Oc1ccc2c(cnn2-c2ccc(=O)n(C)c2)c1)c1cc(F)cc(F)c1", "Endpoint Label": "Emax at 1 µM", "Reported Measurement": 42}

// provenance: patent US10196374B2
